- Measurement protocol: Microsomal stability, human liver microsomes (predicted hepatic clearance)
- Measurement parameters: predicted from in vitro microsomal stability data
Assay readout: Predicted Hepatic Clearance (Pred. Cl.) (mL/min/kg)

>  <Compound>
N#Cc1ccc(COc2cccc(-c3ccc(Cc4nc5ccc(C(=O)O)cc5n4CC45CCC(CC4)O5)c(F)c3)n2)c(F)c1 [Example 231]

>  <Assay readout>
Predicted Hepatic Clearance (Pred. Cl.)

>  <Bound operator>
=

>  <Val>
8.17

$$$$
>  <Compound>
COCCn1c(Cc2ccc(-c3cccc(OCc4cc(F)c(C#N)cc4OC)n3)cc2F)nc2ccc(C(=O)O)cc21 [Example 251]

>  <Assay readout>
Predicted Hepatic Clearance (Pred. Cl.)

>  <Bound operator>
<

>  <Val>
1.83

$$$$
>  <Compound>
N#Cc1ccc(COc2cccc(-c3ccc(Cc4nc5ccc(C(=O)O)cc5n4Cc4cncn4C4CC4)c(F)c3)n2)c(F)c1 [Example 7]

>  <Assay readout>
Predicted Hepatic Clearance (Pred. Cl.)

>  <Bound operator>
=

>  <Val>
5.17

$$$$
>  <Compound>
N#Cc1ccc(COc2cccc(-c3cc(F)c(Cc4nc5ccc(C(=O)O)cc5n4CC45CC(CCO4)C5)cc3F)n2)c(F)c1 [Example 623]

>  <Assay readout>
Predicted Hepatic Clearance (Pred. Cl.)

>  <Bound operator>
=

>  <Val>
10.7

$$$$
>  <Compound>
COCCn1c(Cc2cc(F)c(-c3cccc(OCc4ccc(C#N)cc4F)n3)cc2F)nc2cc(OC)c(C(=O)O)cc21 [Example 836]

>  <Assay readout>
Predicted Hepatic Clearance (Pred. Cl.)

>  <Bound operator>
=

>  <Val>
1.83

$$$$
>  <Compound>
COCCn1c(C2CCc3cc(-c4cccc(OCc5ccc(C#N)cc5F)n4)ccc32)nc2ccc(C(=O)O)cc21 (single isomer, unassigned) [Example 46]

>  <Assay readout>
Predicted Hepatic Clearance (Pred. Cl.)

>  <Bound operator>
=

>  <Val>
5

$$$$
